STUDY TARGET: Gal(b1-3)[Neu5Ac(b2-6)]GalNAc
ASSAY SUMMARY: glycan array binding signal (z-score within array); higher = stronger binding
DETAILS: glycan notation: IUPAC condensed, linker removed
The entries come from a sample that favours the strongest signals as a whole.
Class membership depends on glycan array binding signal (z-score) alone; the intervals are 0 = under -0.3, 1 = from -0.3 up to 0.07, 2 = 0.07 and over

[ask] Quick check: band for CLEC9a (Mus musculus), Q8BRU4 (protein) MHAEEIYTSLQWDIPTSEASQKCQSPSKCSGAWCVVTMISCVVCMGLLATSIFLGIKFFQVSSLVLEQQERLIQQDTALVNLTQWQRKYTLEYCQALLQRSLHSGSDCSPCPHNWIQNGKSCYYVFERWEMWNISKKSCLKEGASLFQIDSKEEMEFISSIGKLKGGNKYWVGVFQDGISGSWFWEDGSSPLSDLLPAERQRSAGQICGYLKDSTLISDKCDSWKYFICEKKAFGSCI
[reply] 2

[ask] Quick check: band for T7P4 (Tuber borchii) (protein) GSHIGPYMSFYASSEDVRTIEEGGRTWLVGRARRADGSWQDIKLDLDNIIGNRDGHLTWGEQNFTQSASDIRFNFEGSNVPVLRAKLRNAAGGEQESDLNLGERLTNNNGDLVFN
[reply] 1

[ask] Quick check: band for EUL D1A first (Oryza sativa) (protein) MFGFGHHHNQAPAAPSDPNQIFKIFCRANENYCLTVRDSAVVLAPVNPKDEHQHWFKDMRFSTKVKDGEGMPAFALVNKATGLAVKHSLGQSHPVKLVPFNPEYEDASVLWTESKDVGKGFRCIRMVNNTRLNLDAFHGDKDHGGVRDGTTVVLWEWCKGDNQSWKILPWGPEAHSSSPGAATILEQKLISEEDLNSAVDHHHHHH
[reply] 0

[ask] Quick check: band for Agalectin (Anopheles gambiae) (protein) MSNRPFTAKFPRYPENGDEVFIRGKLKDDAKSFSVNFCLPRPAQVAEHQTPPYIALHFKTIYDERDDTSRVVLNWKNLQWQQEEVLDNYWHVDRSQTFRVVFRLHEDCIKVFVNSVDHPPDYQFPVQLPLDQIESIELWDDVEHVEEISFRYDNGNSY
[reply] 2

[ask] Quick check: band for Intelectin 1 (Homo sapiens), Q8WWA0 (protein) MNQLSFLLFLIATTRGWSTDEANTYFKEWTCSSSPSLPRSCKEIKDECPSAFDGLYFLRTENGVIYQTFCDMTSGGGGWTLVASVHENDMRGKCTVGDRWSSQQGSKAVYPEGDGNWANYNTFGSAEAATSDDYKNPGYYDIQAKDLGIWHVPNKSPMQHWRNSSLLRYRTDTGFLQTLGHNLFGIYQKYPVKYGEGKCWTDNGPVIPVVYDFGDAQKTASYYSPYGQREFTAGFVQFRVFNNERAANALCAGMRVTGCNTEHHCIGGGGYFPEASPQQCGDFSGFDWSGYGTHVGYSSSREITEAAVLLFYR
[reply] 2

[ask] Quick check: band for ECL (Erythrina cristagalli), Q6YD91 (protein) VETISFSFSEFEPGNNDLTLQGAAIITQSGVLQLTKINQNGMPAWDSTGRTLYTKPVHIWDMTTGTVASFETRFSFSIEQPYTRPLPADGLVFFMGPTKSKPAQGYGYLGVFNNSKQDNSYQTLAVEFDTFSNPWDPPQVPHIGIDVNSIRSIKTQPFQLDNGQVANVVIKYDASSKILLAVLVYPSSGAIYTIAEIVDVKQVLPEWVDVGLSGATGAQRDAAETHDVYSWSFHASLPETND
[reply] 0

[ask] Quick check: band for SIGNR8 (Mus musculus) (protein) MAGEPEFHQSKNHEEEVTSGEQGFAEHDPEGLICSSKSLQGHLTQVPWLLLLLISLGLFLLMLATLVQVSRIRAYSQGQTQDQQGSSSLDKVAVPREQTHSGLEQIQQIQQQLTQFNASLAGLCRPCPWDWELFQGSCYLFSRTLGSWETSASSCEDLGAHLVIVNSVSEQRFMKYWNVRKNQRSWIGLSDHIHEGSWQWVDGSALKFSFWKEGEPNNDGDEDCVELFMDDWNDNKCTEQNFWVCEQPSAPCPHH
[reply] 0

[ask] Quick check: band for Gal 3 (Canis lupus) (protein) MADSFSLNDALSGSGNPNPQGWPGPWGNQPAGAGGYPGASYPGAYPGQAPPGGYPGQAPPGGYPGQAPPGGYPGQAPPGGYPGQAPPGGYPGQAPPGTYPGPTAPAYPGPTAPGTQPGQPSGPGAYPPPGQPSAPGAYPAAGPFGIPAGPLTVPYDLPLPGGVKPRMLITILGTVRPSANRLALDFKRGNDVAFHFNPRFNEDNKRVIVCNTKLDNIWGKEERQAAFPFESGKPFKIQVLVESDHFKVAVNDAHLLQYNHRMKNLPEISKLGISGDIDLTSASYAMI
[reply] 1

[ask] Quick check: band for MSMEG3662-2a (Mycobacterium smegmatis), A0QYH7_MYCS2 (protein) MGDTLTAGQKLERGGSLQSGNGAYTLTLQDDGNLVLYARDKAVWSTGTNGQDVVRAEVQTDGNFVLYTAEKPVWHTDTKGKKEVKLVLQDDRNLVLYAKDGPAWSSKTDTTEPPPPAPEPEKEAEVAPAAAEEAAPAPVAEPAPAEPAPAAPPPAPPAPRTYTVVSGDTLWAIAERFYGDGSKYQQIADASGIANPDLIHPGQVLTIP
[reply] 1
